Recorded values, source paper PMC7988490.

- TARGET OR TEST SYSTEM: T1, drDnaB (DnaB) (Deinococcus radiodurans R1 (ATCC13939), UniProt Q9RWW6 1-448)
- T1 sequence: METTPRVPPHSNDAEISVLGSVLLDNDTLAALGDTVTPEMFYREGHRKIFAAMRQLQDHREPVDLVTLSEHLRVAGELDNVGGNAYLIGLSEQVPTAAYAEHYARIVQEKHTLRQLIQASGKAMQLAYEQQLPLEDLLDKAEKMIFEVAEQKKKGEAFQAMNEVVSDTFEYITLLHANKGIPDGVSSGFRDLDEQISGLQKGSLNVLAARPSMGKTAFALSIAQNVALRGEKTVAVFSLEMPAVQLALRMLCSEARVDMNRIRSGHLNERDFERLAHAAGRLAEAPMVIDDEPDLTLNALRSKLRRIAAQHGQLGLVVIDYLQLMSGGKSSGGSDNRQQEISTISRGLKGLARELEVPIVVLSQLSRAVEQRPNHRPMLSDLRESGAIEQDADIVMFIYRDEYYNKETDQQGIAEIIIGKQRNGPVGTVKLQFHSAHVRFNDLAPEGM
- PROTOCOL: EMSA; ATPgS; EMSA: 50 mM Tris-HCl pH 8.0, 75 mM KCl, 5 mM MgSO4, 0.1 mM DTT, +/- 1 mM ATP, ~30 nM 32P-DNA, 37 C 15 min
- ASSAY SETUP: protein: recombinant; tags: N-terminal 6xHis (pET28a); chain copies: 6; label: 32P 5' end
pKd: −log10 of the molar value.

# BINDER, pKd
records = [
    ("GGAATTCCAATGAACCGCAAAACCGCAAAAACCGTACCGA (ssDNA) [ssDNA oligo 99F (40 nt)]", 5.99),
]
